Tested on: herpes simplex virus (HSV-1) in Vero cells
procedure-text: Antiviral effect: HSV-1 (GFP) infection of Vero cells, flow cytometry
Assay type: cell-based
condition-details: Human alphaherpesvirus 1, Vero, 18 h, read-out: inhibition rate of virus replication
Rule: inhibition at 10 µM under 60% gives F, otherwise T.

compound=Oc1ccc([C@H]2c3c(O)cc(O)cc3[C@H]3c4c(cc(O)cc4[C@@H]2O)O[C@@H]3c2ccc(O)cc2)cc1 label=F
compound="Oc1ccc(/C=C/c2cc(O)cc3c2C(c2cc(O)cc(O)c2)C(c2ccc(O)cc2)O3)cc1 (stereo not drawn)" label=F

-- ask Could you please find out whether Oc1ccc(-c2oc3cc(O)cc4c3c2-c2cc(O)cc3c2[C@H](c2cc(O)cc5c2[C@@H]4[C@H](c2ccc(O)cc2)O5)[C@@H](c2ccc(O)cc2)O3)cc1 has inhibition at 10 µM that meets 60% or exceeds it?
-- reply F

-- ask Could you please find out whether Oc1ccc([C@H]2c3c(O)cc(O)cc3[C@H]3c4c(cc(O)cc4[C@@H]2c2cc(/C=C/c4cc(O)cc5c4[C@H](c4cc(O)cc(O)c4)[C@@H](c4ccc(O)cc4)O5)ccc2O)O[C@@H]3c2ccc(O)cc2)cc1 has inhibition at 10 µM that meets 60% or exceeds it?
-- reply T

-- ask Could you please find out whether Oc1ccc([C@H]2Oc3cc(O)cc(/C=C/c4ccc5c(c4)[C@@H](c4cc(O)cc6c4[C@H](c4cc(O)cc(O)c4)[C@@H](c4ccc(O)cc4)O6)[C@H](c4ccc(O)cc4)O5)c3[C@@H]2c2cc(O)cc(O)c2)cc1 has inhibition at 10 µM that meets 60% or exceeds it?
-- reply T
